Where do the numbers come from? From ChEMBL document CHEMBL1201862.

# System: 786-0
# Assay details: NCI tumour cell line growth inhibition, 48 h
The source made the active and inactive calls. No stated cut-off is given here; in the data, active = GI50 up to about 1.1 µM and inactive = higher.
Measured endpoint: GI50

Illustrative cases are given below, each with its answer.
CCOC(=O)C(C(N)=O)C1=Nc2cc([N+](=O)[O-])ccc2N/C1=C\C(=O)c1ccc(C)cc1 (stereo not given) = 13.1 µM (inactive)
CC1(N2CCOCC2)CC2C(=[N+]1[O-])CCC/C2=N/O (stereo not given) = > 100 µM (inactive)
C/N=c1/ss/c(=N\C(SC)=[N+](C)C)n1C.[O-][Cl+3]([O-])([O-])[O-] = > 100 µM (inactive)
NC(=O)C(=Cc1ccc(C(O)P(=O)(O)O)cc1)C(N)=O (stereo not given) = > 100 µM (inactive)

For each of the molecules below, state GI50.
1. CSc1c(C#N)c2n(c3ccccc3[n+]2C)c2ncccc12
2. CN(N=O)C(=O)NC(CCCCNC(=O)OCc1ccccc1)C(=O)OCc1ccccc1 (stereo not given)

Result:
1. 17.7 µM (inactive)
2. 17.5 µM (inactive)

* * *

# Test system: HOP-92
# Assay details: NCI tumour cell line growth inhibition, 48 h
Active and inactive are the calls of the source. No stated cut-off is given here; in the data, active = GI50 up to about 1.1 µM and inactive = higher.
Would you mind answering with one of these outcomes? YES = active, NO = inactive

Look over these answered cases.
Cc1c(O)c(C)c2c(C)cn(C(=O)C(C)(C)C)c2c1C = YES
CC1=NCCc2cc3[nH]c4ccccc4c3cc21 = YES
CC(C)(Cl)C(Br)CCC(C)(Cl)C(Br)CBr (stereo unspecified) = NO
NCCSCCc1ccccc1 = NO
Cc1ccccc1NC(=O)CC(=O)NNC(Sc1ccccc1)c1cc(/N=N/c2ccc(Br)cc2)ccc1O (stereo unspecified) = NO

Ask: Test call for this compound, please: COc1c(OC(C)=O)c(OC(C)=O)cc2c1-c1ccc(SC)c(=O)cc1C(NC(C)=O)CC2 (stereo unspecified)
Result: YES

Ask: Test call for this compound, please: Cc1c(C)c2ccc(OC(C)C(=O)O)cc2oc1=O (stereo unspecified)
Result: NO

Ask: Test call for this compound, please: "C=C1C(=O)[C@@]23CC[C@H]4[C@@](C)(CCC[C@@]4(C)C(=O)OC)[C@@H]2CC[C@]1(O)C3"
Result: NO

* * *

# System: HOP-62
# Assay details: NCI tumour cell line growth inhibition, 48 h
The source made the active and inactive calls. Cut-off read from the data, not from the text of the source: active = GI50 up to about 1.1 µM and inactive = higher.
Would you mind answering with one of these outcomes? true (1) for active, false (0) for inactive

Look over these answered cases.
C=C(C)[C@@]1(O)O[C@H]2C[C@@]3(C)OC(=CC3=O)/C(C)=C\[C@@H]3OC(=O)[C@@]1(C)[C@H]32 = false (0)
NCCSCCc1ccccc1 = false (0)

Ask: Test call for this compound, please: "CC(=O)Nc1ccc(Nc2cc(=O)n(C)c(=O)[nH]2)cc1"
Result: false (0)

Ask: Test call for this compound, please: CC(C)(O)CCC(O)C(C)(O)C1CCC2(O)C3=CC(=O)C4(O)CC(O)C(O)CC4(C)C3CCC12C.CC(C)(O)CCC(O)C(C)(O)C1CCC2(O)C3=CC(=O)C4CC(O)C(O)CC4(C)C3CCC12C (stereo unspecified)
Result: false (0)

Ask: Test call for this compound, please: "c1ccc(/N=C2\SC(=NNc3ccccc3)S\C2=N/c2ccccc2)cc1"
Result: false (0)

Ask: Test call for this compound, please: CC1OC(O[C@@H]2OC=C(C=O)[C@@]3(O)CC[C@H](C)[C@@H]23)C(O)C(O)C1O (stereo partly specified)
Result: false (0)

Ask: Test call for this compound, please: COc1cccc2c1C(=O)c1c(O)c3c(c(O)c1C2=O)C[C@@](O)(C(=O)CN1CCOCC1)C[C@@H]3OC1CC(N)C(O)C(C)O1 (stereo partly specified)
Result: false (0)

Ask: Test call for this compound, please: COc1c(OC(C)=O)c(OC(C)=O)cc2c1-c1ccc(SC)c(=O)cc1C(NC(C)=O)CC2 (stereo unspecified)
Result: true (1)

Ask: Test call for this compound, please: CC(C)(C)C1C=C(Sc2ccccc2)C(=O)O1 (stereo unspecified)
Result: false (0)

* * *

# System: SNB-75
# Assay details: NCI tumour cell line growth inhibition, 48 h
The source made the active and inactive calls. Cut-off read from the data, not from the text of the source: active = GI50 up to about 1.1 µM and inactive = higher.
Would you mind answering with one of these outcomes? TRUE = active, FALSE = inactive

Look over these answered cases.
CCOC(=O)C1C(c2ccc(OC)cc2)c2c(n[nH]c2O)CC1(O)OCC (stereo unspecified) = FALSE
CC1OC(OC2C(OC(=O)[C@]34CCC(C)(C)C[C@H]3C3=CC[C@@H]5[C@@]6(C)CC[C@H](OC7OC(C(=O)O)C(O)C(O)C7O)C(C)(C)[C@@H]6CC[C@@]5(C)[C@]3(C)C[C@H]4O)OCC(O)C2O)C(O)C(O)C1OC1OCC(OC2OCC(O)C(O)C2O)C(O)C1O (stereo partly specified) = FALSE

Ask: Test call for this compound, please: "CC(C)(C)CC(C)(C)c1cc2c(O)c(c1)Cc1cc(C(C)(C)CC(C)(C)C)cc(c1O)Cc1cc(C(C)(C)CC(C)(C)C)cc(c1O)Cc1cc(C(C)(C)CC(C)(C)C)cc(c1O)Cc1cc(C(C)(C)CC(C)(C)C)cc(c1O)C2"
Result: FALSE

* * *

# Test system: 786-0
# Assay details: NCI tumour cell line growth inhibition, 48 h
Counter-ions that a name gives are not always drawn. Activity calls are given as the source filed them. Cut-off read from the data, not from the text of the source: active = GI50 up to about 1.1 µM and inactive = higher.
Measured endpoint: GI50

Illustrative cases are given below, each with its answer.
O=C(CSc1nc2nncc-2c(O)[nH]1)c1ccc(Cl)cc1 = > 100 µM (inactive)
O=[N+]([O-])c1ccc2[nH]c(-c3ccc(Cl)cc3)nc2c1 = 33 µM (inactive)
O=C1C(c2ccccc2)=C(c2ccccc2)C(c2ccccc2)/C1=C1\C(=O)C(c2ccccc2)=C(c2ccccc2)C1c1ccccc1 (stereo unspecified) = > 100 µM (inactive)
CCOC(=O)CCCN = > 100 µM (inactive)
Cc1cc(S(=O)(=O)Nc2nc3cc(-c4ccc(Cl)cc4)sc3c(=O)n2N)c(S)cc1Cl = 45.9 µM (inactive)
COc1cc(OC)c2c3c(OC)cc(OC)c4c(=O)c(O)c(C[C@@H](C)O)c(c5c(C[C@@H](C)O)c(O)c(=O)c1c25)c43 = 19.1 µM (inactive)

For each of the molecules below, state GI50.
1. CSc1nc(NC2CCCC2)c2cc[nH]c2n1
2. CC(C)C[C@H]1C(=O)N2CCC[C@H]2[C@]2(O)O[C@](NC(=O)[C@@H]3C=C4c5cccc6[nH]c(Br)c(c56)C[C@H]4N(C)C3)(C(C)C)C(=O)N12 [BROMOCRIPTINE MESYLATE]
3. CCC1(Br)C(=O)NC(=O)N(C2CC(O)C(CO)O2)C1N=[N+]=[N-] (stereo unspecified)
4. CCOC(=O)C1=C(C)N(NC(=O)Nc2ccccc2)C(=O)C1=P(c1ccccc1)(c1ccccc1)c1ccccc1
5. CCC1(CN(C)C)CC/C(=C\c2ccc(OC)cc2)C1=O (stereo unspecified)

Result:
["95.1 µM (inactive)", "53.2 µM (inactive)", "> 100 µM (inactive)", "63 µM (inactive)", "> 100 µM (inactive)"]

* * *

# Tested on: SNB-19
# Assay details: NCI tumour cell line growth inhibition, 48 h
Active and inactive are the calls of the source. Rule as the data show it: active = GI50 up to about 1.1 µM and inactive = higher.
Would you mind answering with one of these outcomes? active, inactive

Look over these answered cases.
COc1c2c(cc3c1C1(O)Cc4ccc5c(c4C[N+]1(C)CC3)OCO5)OCO2 (stereo not drawn) = inactive
CC1OC(OC2C(O[C@H]3CC[C@@]4(C)[C@@H](CC[C@@H]5[C@@H]4CC[C@]4(C)[C@@H]6[C@H](C[C@@H]54)O[C@]4(CC[C@@H](C)CO4)[C@H]6C)C3)OC(CO)C(OC3OC(CO)C(O)C(OC4OCC(O)C(O)C4O)C3OC3OCC(O)C(O)C3O)C2O)C(O)C(O)C1O (stereo partly drawn) = active

Shift focus to the following entry.
Ask: Test call for this molecule, please: O=C(C#Cc1ccccc1)N1c2ccccc2CC1c1c[nH]c2ccccc12 (stereo not drawn)
Result: inactive

* * *

# System: DU-145
# Assay details: NCI tumour cell line growth inhibition, 48 h
Activity calls are given as the source filed them. Rule as the data show it: active = GI50 up to about 1.1 µM and inactive = higher.
Can you tell me GI50 for the items I'm about to list?

Cn1c(=O)c2c(nc(NCCCCl)n2CC(=O)NCCCCl)n(C)c1=O = > 100 µM (inactive)

For each of the molecules below, state GI50.
1. Oc1ccc2c(c1)OCC(O)(c1ccccc1O)C2 (stereo unspecified)
2. O=C1C2CC[C@@H]3C(=O)C(Cl)(Cl)[C@@H]3CCC2C1(Cl)Cl (stereo partly specified)
3. C=C(C)C1CC2(C)C(C)CC(OC(=O)/C(C)=C\C)CC2C(OC(=O)/C(C)=C\C)C1O (stereo unspecified)
4. CSc1nc(NC2CCCC2)c2cc[nH]c2n1

Result:
1: > 100 µM (inactive); 2: > 100 µM (inactive); 3: 66.8 µM (inactive); 4: > 100 µM (inactive)

Ask: Entry CC1CCC2C(C)C(OC(=O)CCC(=O)O)OC3OC4(C)CCC1C32OO4 (stereo unspecified) : reported GI50 = ?
Result: 21.4 µM (inactive)
